system: HCC-2998 colon; experiment: NCI tumour cell line growth inhibition, 48 h
Measurement Type: TGI (µM)
Provide the reading as a plain figure in µM.

Here is how some molecules turned out for TGI.
{"columns": ["Molecule", "Unit String", "TGI"],
 "data": [
  ["CC1=C([Se]CC(OC(=O)[C@@H](CSSC(C)(C)C)NC(=O)C(C)(C)C)C(=O)NCCCCCC(=O)OCc2ccccc2)C(=O)c2ccccc2C1=O (stereo partly specified)", "µM", 4],
  ["Cc1c2c(cc3c1[nH]c1ccccc13)C(c1ccc(F)cc1)=NCC2", "µM", 2.8],
  ["COc1cc(/C=C2\\C[C@H]3[C@@H]4CC=C5C[C@@H](OC(C)=O)CC[C@]5(C)[C@H]4CC[C@]3(C)[C@H]2OC(C)=O)ccc1OCCCn1ccnc1", "µM", 17.7],
  ["O=C1C(Br)=C(c2ccccc2)C(c2ccccc2)=C1c1ccccc1", "µM", 15.9],
  ["CCC/C(Cl)=N\\OC(=O)Nc1ccc(Br)cc1", "µM", 32.9]
]}

Note: attention shifts to another entry.
I have this molecule here, `Cc1ccc(S(=O)(=O)Oc2coc(CO)cc2=O)cc1` , and I need its recorded TGI.
27

* * *

test system: K-562 leukemia; assay: NCI tumour cell line growth inhibition, 48 h; in the data active = GI50 below about 0.43 µM; inactive = the rest
Field 'call' accepts TRUE = active, FALSE = inactive

// known answers, use as guide
{"columns": ["Compound", "Assigned Category"],
 "data": [
  ["COc1ccc(C(=O)c2ccc(OC)cc2OC)cc1", "FALSE"],
  ["O=C1CC(N2C(=O)/C(=C/C(Cl)=C\\c3ccc([N+](=O)[O-])cc3)SC2=S)C(=O)N1c1ccc(Cl)cc1 (stereo unspecified)", "FALSE"],
  ["C[C@@H](Oc1cc(-c2cnn(C3CC4(CCNCC4)C3)c2)cnc1N)c1c(F)ccc(Cl)c1Cl", "TRUE"],
  ["C[C@]12CC[C@H]3[C@@H](CC=C4C[C@@H](O)CC[C@@]43C)[C@@H]1C/C(=C\\c1cccc(OCCCn3ccnc3)c1)[C@@H]2O", "FALSE"],
  ["C=C1C(=O)O[C@H]2[C@H]1CC/C(COC(=O)N[C@@H](Cc1c[nH]c3ccccc13)C(=O)OC)=C\\CC[C@@]1(C)O[C@@H]21", "TRUE"]
]}

Recorded test call requested for CC(=O)O[C@H]1C(=O)[C@@]2(C)[C@H]([C@H](OC(=O)c3ccccc3)[C@]3(O)C[C@H](OC(=O)[C@H](OC(=O)CCC(=O)OC4CCC(S/N=C(N)/N=C(\N)N(C)C)CC4)[C@@H](NC(=O)c4ccccc4)c4ccccc4)C(C)=C1C3(C)C)[C@]1(OC(C)=O)CO[C@@H]1C[C@@H]2O (stereo partly specified)
TRUE

* * *

system: OVCAR-4 ovarian; experiment: NCI tumour cell line growth inhibition, 48 h
Each record here notes measured log10(TGI).
Base-10 log of TGI, unit µM.

Some solved entries appear below for comparison.
{"columns": ["Compound", "log10(TGI)"],
 "data": [
  ["CCC12CC[C@H](C#N)N3CCc4c(n(c5ccccc45)C(=O)C1)C32 (stereo not given in full)", 1.50],
  ["O=C(/C=C\\c1cccc2ccccc12)c1ccc(Br)cc1", 1.55],
  ["O=C(Nc1nc(-c2ccc(Cl)cc2)cs1)c1ccc(O)c(O)c1", 1.56],
  ["CC1=C([Se]CC(OC(=O)[C@@H](CSSC(C)(C)C)NC(=O)C(C)(C)C)C(=O)NCCCCCC(=O)OCc2ccccc2)C(=O)c2ccccc2C1=O (stereo not given in full)", 0.47]
]}

Then this compound:
API: value(readout=log10(TGI), system=OVCAR-4 ovarian) for record `CN(C)Cc1cc(C(=O)/C=C/c2c(Cl)cccc2Cl)cc(CN(C)C)c1O`
1.39

* * *

test system: HOP-62 NSCLC; test: NCI tumour cell line growth inhibition, 48 h
Measurement Type: TGI

GET /values?readout=TGI&item= O=C(/C=C/C12c3ccccc3C(c3ccccc31)C1C(=O)NC(=O)C12)c1ccco1 (centres undefined)
6.99 µM

* * *

system: SK-MEL-2 melanoma; assay: NCI tumour cell line growth inhibition, 48 h
# TGI per entry

{"columns": ["Compound", "Assay System", "TGI"],
 "data": [
  ["COc1cc2c(cc1OCCCCCN1CCN(c3cc(=O)oc4c(C)c(OC)ccc34)CC1)N=C[C@@H]1CCCN1C2=O", "SK-MEL-2 melanoma", "< 0.0175 µM"],
  ["CC1=Cc2cc3[n-]c(cc4nc(cc5[n-]c(cc1n2)c(C)c5CCC(=O)O)C(CCC(=O)O)=C4C)cc3C.[Cu+2]", "SK-MEL-2 melanoma", "> 81.7 µM"],
  ["Fc1ccc(Nc2ccc3cc(OCCCN4CCOCC4)ccc3n2)cc1F", "SK-MEL-2 melanoma", "33.5 µM"],
  ["C/C=C/CP(=O)(c1ccccc1)c1ccccc1", "SK-MEL-2 melanoma", "> 100 µM"],
  ["COc1cc(C(=O)O)ccc1NC(=O)[C@@H]1N[C@@H](CC(C)(C)C)[C@](C#N)(c2ccc(Cl)cc2F)[C@H]1c1cccc(Cl)c1F", "SK-MEL-2 melanoma", "10 µM"]
]}

Request body: readout TGI, system SK-MEL-2 melanoma, query O=C1CN2CCC1C/C2=C\c1ccnc2c(Cl)cccc12 (centres undefined) . Return the value.
> 100 µM

Request - read-out TGI | tested on SK-MEL-2 melanoma | compound `Cc1cccc(NC(=O)CSc2nnc(Cc3ccccc3)o2)c1`
> 100 µM

// fetch SK-MEL-2 melanoma TGI for CC1C(c2ccccc2)=CCON1c1ccccc1 (centres undefined)
> 100 µM

Given the entry `C=C1C(=O)O[C@H]2[C@H]1CC/C(COC(=O)N[C@@H](Cc1c[nH]c3ccccc13)C(=O)OC)=C\CC[C@@]1(C)O[C@@H]21` , what TGI was observed with SK-MEL-2 melanoma?
6.06 µM

* * *

test system: SF-539 CNS; test: NCI tumour cell line growth inhibition, 48 h
Measurement Type: TGI

Worked cases, answers included:
{"columns": ["Compound", "TGI"],
 "data": [
  ["O=C(/C=C/C12c3ccccc3C(c3ccccc31)C1C(=O)NC(=O)C12)c1ccco1 (configuration not stated)", "4.16 µM"],
  ["C/C(=N\\[N+](C)(C)C)C(c1ccccc1)C1(c2ccccc2)C(c2ccccc2)=C1c1ccccc1 (configuration not stated)", "> 100 µM"]
]}

Could you share which TGI value was measured for `COc1ccc(C(=O)c2ccc(OC)cc2OC)cc1` ?
22.4 µM

Form field: reported TGI of `Cc1c2c(cc3c1[nH]c1ccccc13)C(c1ccc(F)cc1)=NCC2`
2.77 µM

I'd like to know its TGI. The compound in question is CC1N(O)C(c2ccccc2)C(c2ccccc2)=[N+]1[O-] (configuration not stated)
> 100 µM

Data request, read-out TGI, for `CCSc1nc(=S)[nH]c2[nH]ncc12`
> 100 µM

Find the recorded TGI belonging to `NC(=O)CC1(O)C=CC(=O)C=C1` and report it.
> 100 µM

* * *

tested on: OVCAR-3 ovarian; test: NCI tumour cell line growth inhibition, 48 h
Measurement Type: GI50

Example entries and their recorded answers appear below.
{"columns": ["Compound", "Measurement Type", "Obs Value"],
 "data": [
  ["O=C(Nc1nc(-c2ccc(Cl)cc2)cs1)c1ccc(O)c(O)c1", "GI50", "5.03 µM"],
  ["COc1ccc2c(c1)C(=O)c1c-2c(N2CCN(C(=O)CN(C)C)CC2)nc2ccccc12", "GI50", "19.5 µM"],
  ["O=C1CN2CCC1C/C2=C\\c1ccnc2c(Cl)cccc12 (stereo not drawn)", "GI50", "> 100 µM"],
  ["COc1cc(/C=C2\\C[C@H]3[C@@H]4CC=C5C[C@@H](OC(C)=O)CC[C@]5(C)[C@H]4CC[C@]3(C)[C@H]2OC(C)=O)ccc1OCCCn1ccnc1", "GI50", "12.3 µM"],
  ["Cc1ccc(-c2nc3nc(-c4ccc(Cl)cc4)nc(N4CCCNCC4)c3o2)cc1", "GI50", "1.94 µM"],
  ["CC1=C([Se]CC(OC(=O)[C@@H](CSSC(C)(C)C)NC(=O)C(C)(C)C)C(=O)NCCCCCC(=O)OCc2ccccc2)C(=O)c2ccccc2C1=O (stereo partly drawn)", "GI50", "1.87 µM"],
  ["Cc1c(N(C(=O)c2cc(-c3cc(Cl)ccc3C(=O)N3Cc4ccccc4C[C@H]3CN3CCOCC3)n(C)c2C)c2ccc(O)cc2)cc(C#N)n1C", "GI50", "11 µM"]
]}

Find the recorded GI50 belonging to `CCSc1nc(=S)[nH]c2[nH]ncc12` and report it.
64.6 µM

* * *

system: PC-3 prostate; assay: NCI tumour cell line growth inhibition, 48 h
Measured TGI of individual entries
Answer in µM, number only, no unit symbol.

The cases that follow already have their TGI on record.
{"columns": ["Compound", "TGI (µM)"],
 "data": [
  ["CN(C)Cc1cc(C(=O)/C=C/c2c(Cl)cccc2Cl)cc(CN(C)C)c1O", 19],
  ["O=C(c1cccs1)c1c(C(F)(F)F)n([O-])c2cc(C(F)(F)F)ccc2[n+]1=O", 0.281],
  ["CCOC(=O)c1ccc(C(O)CC(=O)OC(C)(C)C)[nH]1 (stereo not given)", 62]
]}

Moving on to the next compound.
Can you look up the measured TGI of `NC(=Nc1ccc(Cl)c(Cl)c1)c1ccccc1N` for me?
92.4
